- assay.info: specific heat capacity at constant pressure; cn = amount concentration of the nth substance listed, in mol/dm3
- measurement.context: 311.65 K; 101 kPa; Liquid; heat flux microcalorimetry; c1 = 0.01
# Lookup of reported specific heat capacity keyed by entry
observed.property: specific heat capacity (J/K/kg)

>>> df
                                   molecule       observed_property     uom  data_value
0  [Cl-].c1ccc([P+](c2ccccc2)(c2ccccc2)c2ccccc2)cc1 [tetraphenylphosphonium chloride] + CO  specific heat capacity  J/K/kg      2565.8
1  [Cl-].c1ccc([P+](c2ccccc2)(c2ccccc2)c2ccccc2)cc1 [tetraphenylphosphonium chloride] + O  specific heat capacity  J/K/kg      4206.5
2  [Cl-].c1ccc([P+](c2ccccc2)(c2ccccc2)c2ccccc2)cc1 [tetraphenylphosphonium chloride] + CC#N  specific heat capacity  J/K/kg        2277
3  [Cl-].c1ccc([P+](c2ccccc2)(c2ccccc2)c2ccccc2)cc1 [tetraphenylphosphonium chloride] + CCO  specific heat capacity  J/K/kg      2600.7

----------
- assay.info: cn = amount concentration of the nth substance listed, in mol/dm3
- measurement.context: 314.65 K; 101 kPa; Liquid; c1 = 0.05
Numbers after ± are expanded uncertainties.
observed.property: mass density

                                   compound           data_value
0  [Cl-].c1ccc([P+](c2ccccc2)(c2ccccc2)c2ccccc2)cc1 [tetraphenylphosphonium chloride] + CO   782.06 ± 1.9 kg/m3
1  [Cl-].c1ccc([P+](c2ccccc2)(c2ccccc2)c2ccccc2)cc1 [tetraphenylphosphonium chloride] + O  994.11 ± 0.54 kg/m3
2  [Cl-].c1ccc([P+](c2ccccc2)(c2ccccc2)c2ccccc2)cc1 [tetraphenylphosphonium chloride] + CC#N     770.87 ± 2 kg/m3
3  [Cl-].c1ccc([P+](c2ccccc2)(c2ccccc2)c2ccccc2)cc1 [tetraphenylphosphonium chloride] + CCO   779.58 ± 1.9 kg/m3

----------
// mass density lookup, one value per entry
- assay.info: cn = amount concentration of the nth substance listed, in mol/dm3
- measurement.context: 311.65 K; 101 kPa; Liquid; c1 = 0.02
observed.property: mass density (kg/m3)

>>> print(df.to_string())
                                   compound    uom  data_value
0  [Cl-].c1ccc([P+](c2ccccc2)(c2ccccc2)c2ccccc2)cc1 [tetraphenylphosphonium chloride] + CO  kg/m3      777.85
1  [Cl-].c1ccc([P+](c2ccccc2)(c2ccccc2)c2ccccc2)cc1 [tetraphenylphosphonium chloride] + CC#N  kg/m3      769.19
2  [Cl-].c1ccc([P+](c2ccccc2)(c2ccccc2)c2ccccc2)cc1 [tetraphenylphosphonium chloride] + CCO  kg/m3      776.11
3  [Cl-].c1ccc([P+](c2ccccc2)(c2ccccc2)c2ccccc2)cc1 [tetraphenylphosphonium chloride] + O  kg/m3      996.99

These data points were gathered from the NIST ThermoML archive (doi:10.1016/j.fluid.2010.03.017).
